System tested: TAOK2 (human)
Method notes: Caliper, Mobility shift assay off-chip
Condition context: compound 0.02 µM
Reported property: inhibition (%)

{"Smiles data": "COc1cc2c(Oc3ccc4[nH]c(C)cc4c3F)ncnc2cc1OCCCN1CCCC1", "inhibition [%]": 3.1}

1. Cc1ccc(Nc2nccc(N(C)c3ccc4c(C)n(C)nc4c3)n2)cc1S(N)(=O)=O
2. CNC(=O)c1cc(Oc2ccc(NC(=O)Nc3ccc(Cl)c(C(F)(F)F)c3)cc2)ccn1
3. CNC(=O)c1ccccc1Sc1ccc2c(/C=C/c3ccccn3)n[nH]c2c1
Ask: Hey, quick one: sort these by inhibition, low to high? Output the labels ranked as instructed.
Result: 3, 1, 2

Every entry's value here was drawn from the kinase profiling compilation of Christmann-Franck et al. (2016).
